- Test system: monocytes
- TEST: aberrant enzyme activities in febrile children, monocytes (Table 7)
- Type: cell-based, human
- STUDY_CONDITIONS: P88 Enteritis
Numbered stars: 1 amine (or outer) side, 2 acyl side, 3 side chain; on linkers, the order of the positions; unused ones are H or OH. Bridge positions count the residues as written; N and C are the ends. Peptide text beside a SMILES is read from it. I, II: the chains in the order shown. Rhodamine110 = O=C1OC2(c3ccc(N[*:1])cc3Oc3cc(N[*:2])ccc32)c2ccccc21
EXPERIMENTAL_READOUT: aberrant enzyme activity, MONOS

// query So what's the measured aberrant enzyme activity, MONOS for this one? C[C@H](NC(=O)[C@@H](N)CCCCN)C(=O)Nc1ccc2c(c1)Oc1cc(NC(=O)[C@H](C)NC(=O)[C@@H](N)CCCCN)ccc1C21OC(=O)c2ccccc21
// result .smallcircle.

// query And for C[C@H](NC(=O)CNC(=O)[C@H](Cc1ccccc1)NC(=O)CN)C(=O)Nc1ccc2c(c1)Oc1cc(NC(=O)[C@H](C)NC(=O)CNC(=O)[C@H](Cc3ccccc3)NC(=O)CN)ccc1C21OC(=O)c2ccccc21 [GFGA, (Gly-Phe-Gly-Ala)2 Rho 110] (I: H-GFGA / II: H-GFGA; linker I:C-II:C via Rhodamine110) ?
// result .smallcircle.

// query Moving on to O=C1OC2(c3ccc(OP(=O)(O)O)cc3Oc3cc(OP(=O)(O)O)ccc32)c2ccccc21
// result .smallcircle.

* * *

- Tested on: lymphocytes
- TEST: peptidase activity in leukemia and non-leukemia patients, lymphocytes (Table 6C)
- Format: cell-based, human
- Set-up: unit not given here
- STUDY_CONDITIONS: N201 normal
EXPERIMENTAL_READOUT: enzyme activity, Lymphs
Lab note: jot down the number only; don't add units.

// query What does the record list as enzyme activity, Lymphs for C[C@H](N)C(=O)Nc1ccc2c(c1)Oc1cc(NC(=O)[C@H](C)N)ccc1C21OC(=O)c2ccccc21 ?
// result 106.72

// query Would you kindly repeat that for NCC(=O)N1CCC[C@H]1C(=O)Nc1ccc2c(c1)Oc1cc(NC(=O)[C@@H]3CCCN3C(=O)CN)ccc1C21OC(=O)c2ccccc21 [GP, (H-Gly--Pro)2 Rho .2TFA] ?
// result 6.53

// query Here is the next compound: C[C@@H](O)[C@H](N)C(=O)N1CCC[C@H]1C(=O)Nc1ccc2c(c1)Oc1cc(NC(=O)[C@@H]3CCCN3C(=O)[C@@H](N)[C@@H](C)O)ccc1C21OC(=O)c2ccccc21 [TP, (H-L-Thr--Pro)2 Rho 110 .2TFA]
// result 1.88

// query Cool, now O=C1OC2(c3ccc(NC(=O)[C@@H]4CCCN4)cc3Oc3cc(NC(=O)[C@@H]4CCCN4)ccc32)c2ccccc21 [PRO, (H-L-Pro)2 --Rho 110 .2TFA]
// result 1.10

// query Now the same for NC(=O)CC[C@H](N)C(=O)N[C@@H](CO)C(=O)Nc1ccc2c(c1)Oc1cc(NC(=O)[C@H](CO)NC(=O)[C@@H](N)CCC(N)=O)ccc1C21OC(=O)c2ccccc21 [QS, (H-L-Gln--Ser)2 Rho 110 .2TFA]
// result 0.02

// query Now this one: CC(C)[C@H](N)C(=O)N[C@@H](CO)C(=O)Nc1ccc2c(c1)Oc1cc(NC(=O)[C@H](CO)NC(=O)[C@@H](N)C(C)C)ccc1C21OC(=O)c2ccccc21 [VS, (H-L-Val--Ser)2 Rho 110 .2TFA]
// result 0.07

* * *

- Test system: lymphocytes
- TEST: peptidase activity in leukemia and non-leukemia patients, lymphocytes (Table 6C)
- Type: cell-based, human
- Set-up: unit not given here
- STUDY_CONDITIONS: N197 normal
EXPERIMENTAL_READOUT: enzyme activity, Lymphs
Could you keep your reply to the number by itself?

// query So what's the measured enzyme activity, Lymphs for this one? C[C@H](N)C(=O)Nc1ccc2c(c1)Oc1cc(NC(=O)[C@H](C)N)ccc1C21OC(=O)c2ccccc21
// result 96.36

// query Thanks! And NC(=O)CC[C@H](N)C(=O)N[C@@H](CO)C(=O)Nc1ccc2c(c1)Oc1cc(NC(=O)[C@H](CO)NC(=O)[C@@H](N)CCC(N)=O)ccc1C21OC(=O)c2ccccc21 [QS, (H-L-Gln--Ser)2 Rho 110 .2TFA] ?
// result 0.06

// query Request: CC(C)[C@H](N)C(=O)N[C@@H](CO)C(=O)Nc1ccc2c(c1)Oc1cc(NC(=O)[C@H](CO)NC(=O)[C@@H](N)C(C)C)ccc1C21OC(=O)c2ccccc21 [VS, (H-L-Val--Ser)2 Rho 110 .2TFA]
// result 0.11

* * *

Provide the recorded aberrant enzyme activity, GRANS for the entries that follow.
- Test system: granulocytes
- TEST: aberrant enzyme activities in febrile children, granulocytes (Table 7)
- Type: cell-based, human
- STUDY_CONDITIONS: P101 Fever -- Unknown Origin
Numbered stars: 1 amine (or outer) side, 2 acyl side, 3 side chain; on linkers, the order of the positions; unused ones are H or OH. Bridge positions count the residues as written; N and C are the ends. Peptide text beside a SMILES is read from it. I, II: the chains in the order shown. Rhodamine110 = O=C1OC2(c3ccc(N[*:1])cc3Oc3cc(N[*:2])ccc32)c2ccccc21

// query Which measured aberrant enzyme activity, GRANS value corresponds to CC(C)[C@H](N)C(=O)N[C@@H](CCCCN)C(=O)Nc1ccc2c(c1)Oc1cc(NC(=O)[C@H](CCCCN)NC(=O)[C@@H](N)C(C)C)ccc1C21OC(=O)c2ccccc21 [VK-M, (Val-Lys)2 Rho 110 (modified)] ?
// result .smallcircle.

// query One more compound: CC(C)[C@H](N)C(=O)N[C@@H](CCCCN)C(=O)Nc1ccc2c(c1)Oc1cc(NC(=O)[C@H](CCCCN)NC(=O)[C@@H](N)C(C)C)ccc1C21OC(=O)c2ccccc21 [VK, (Val-Lys)2 Rho 110]
// result .smallcircle.

// query Query N=C(N)NCCC[C@H](N)C(=O)NCC(=O)N[C@@H](CCC(=O)O)C(=O)N[C@@H](CO)C(=O)Nc1ccc2c(c1)Oc1cc(NC(=O)[C@H](CO)NC(=O)[C@H](CCC(=O)O)NC(=O)CNC(=O)[C@@H](N)CCCNC(=N)N)ccc1C21OC(=O)c2ccccc21 (stereo partly drawn) [RGES, (Arg-Gly-Glu-Ser)2 Rho 110] (I: H-RGES / II: H-RGES; linker I:C-II:C via Rhodamine110) next
// result .smallcircle.

* * *

For each entry below, report its aberrant enzyme activity, LYMPHS value.
- System: lymphocytes
- TEST: aberrant enzyme activities in febrile children, lymphocytes (Table 7)
- Assay type: cell-based, human
- STUDY_CONDITIONS: P88 Enteritis

// query Record request: aberrant enzyme activity, LYMPHS value, item C[C@H](N)C(=O)Nc1ccc2c(c1)Oc1cc(NC(=O)[C@H](C)N)ccc1C21OC(=O)c2ccccc21
// result .smallcircle.

// query Try O=C1OC2(c3ccc(OP(=O)(O)O)cc3Oc3cc(OP(=O)(O)O)ccc32)c2ccccc21 next.
// result .smallcircle.

* * *

Can you tell me enzyme activity, Grans for the items I'm about to list?
- System: granulocytes
- TEST: peptidase activity in leukemia and non-leukemia patients, granulocytes (Table 6C)
- Format: cell-based, human
- Parameters: unit not given here
- STUDY_CONDITIONS: N194 normal

// query Please provide the recorded enzyme activity, Grans for NC(=O)CC[C@H](N)C(=O)N[C@@H](CO)C(=O)Nc1ccc2c(c1)Oc1cc(NC(=O)[C@H](CO)NC(=O)[C@@H](N)CCC(N)=O)ccc1C21OC(=O)c2ccccc21 [QS, (H-L-Gln--Ser)2 Rho 110 .2TFA] , tested on granulocytes.
// result 0.07

// query Repeat with CC(C)[C@H](N)C(=O)N[C@@H](CO)C(=O)Nc1ccc2c(c1)Oc1cc(NC(=O)[C@H](CO)NC(=O)[C@@H](N)C(C)C)ccc1C21OC(=O)c2ccccc21 [VS, (H-L-Val--Ser)2 Rho 110 .2TFA]
// result 0.29

// query Another: C[C@@H](O)[C@H](N)C(=O)N1CCC[C@H]1C(=O)Nc1ccc2c(c1)Oc1cc(NC(=O)[C@@H]3CCCN3C(=O)[C@@H](N)[C@@H](C)O)ccc1C21OC(=O)c2ccccc21 [TP, (H-L-Thr--Pro)2 Rho 110 .2TFA]
// result 3.77

// query Could you do the same for NCC(=O)N1CCC[C@H]1C(=O)Nc1ccc2c(c1)Oc1cc(NC(=O)[C@@H]3CCCN3C(=O)CN)ccc1C21OC(=O)c2ccccc21 [GP, (H-Gly--Pro)2 Rho .2TFA] , please?
// result 12.49

// query Repeat with C[C@H](N)C(=O)Nc1ccc2c(c1)Oc1cc(NC(=O)[C@H](C)N)ccc1C21OC(=O)c2ccccc21 [ALA, (Ala)2 Rho 110]
// result 164.00
